- ASSAY_SYSTEM: RAC-alpha serine/threonine-protein kinase (Homo sapiens, UniProt P31749)
- Sequence (P31749 whole entry): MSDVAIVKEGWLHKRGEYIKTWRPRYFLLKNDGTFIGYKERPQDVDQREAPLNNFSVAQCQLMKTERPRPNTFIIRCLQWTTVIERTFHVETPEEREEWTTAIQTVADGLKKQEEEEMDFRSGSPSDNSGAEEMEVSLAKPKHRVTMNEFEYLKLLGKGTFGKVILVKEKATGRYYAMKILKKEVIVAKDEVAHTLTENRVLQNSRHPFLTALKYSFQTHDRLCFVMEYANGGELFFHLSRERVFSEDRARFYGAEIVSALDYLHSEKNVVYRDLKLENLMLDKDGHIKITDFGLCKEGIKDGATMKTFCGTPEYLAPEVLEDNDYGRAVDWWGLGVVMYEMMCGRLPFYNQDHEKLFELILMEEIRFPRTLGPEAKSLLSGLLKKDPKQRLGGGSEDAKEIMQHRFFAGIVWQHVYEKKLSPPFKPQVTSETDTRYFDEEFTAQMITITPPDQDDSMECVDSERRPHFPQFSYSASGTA
- TEST: Inhibition of GST-tagged PKB/Akt1 incubated for 5 mins before eNOS substrate and ATP addition measured after 30 mins by kinase assay
- MEASUREMENT_CONDITIONS: read-out: IC50
ENDPOINT_LABEL: IC50 (µM)

Entry CC(C)=CCc1c(O)cc2oc(-c3ccc(O)cc3O)cc(=O)c2c1O ; IC50 = 54.5

// IC50 lookup, compound = CC(C)=CCc1c(O)cc(O)c2c(=O)cc(-c3ccc(O)c(O)c3)oc12 , result: 3.9

Recorded IC50 (compound CC(C)=CCc1c(O)cc(O)c(C(=O)/C=C/c2ccc(O)cc2)c1O ): 144

P. CC(C)=CCc1cc(C(=O)/C=C/c2cccc(O)c2)c(O)cc1O
Q. CC(C)=CCc1c(O)cc2oc(-c3ccc(O)c(O)c3)cc(=O)c2c1O
Problem: Just tell me: smaller IC50 value, P or Q ? Respond with the label that goes with your answer.
Solution: Q
